molecular target: KCNQ2 potassium channel (CHO-KCNQ2 cells) (Homo sapiens); construct: expressed in transfected cells; host or cells: CHO cells stably expressing KCNQ2, kept under G418 selection; test: Potassium ion channel opener activity test (FDSS/μCELL detection, FluxOR thallium flux); assay type: cell-based
Sequence (O43526 whole entry): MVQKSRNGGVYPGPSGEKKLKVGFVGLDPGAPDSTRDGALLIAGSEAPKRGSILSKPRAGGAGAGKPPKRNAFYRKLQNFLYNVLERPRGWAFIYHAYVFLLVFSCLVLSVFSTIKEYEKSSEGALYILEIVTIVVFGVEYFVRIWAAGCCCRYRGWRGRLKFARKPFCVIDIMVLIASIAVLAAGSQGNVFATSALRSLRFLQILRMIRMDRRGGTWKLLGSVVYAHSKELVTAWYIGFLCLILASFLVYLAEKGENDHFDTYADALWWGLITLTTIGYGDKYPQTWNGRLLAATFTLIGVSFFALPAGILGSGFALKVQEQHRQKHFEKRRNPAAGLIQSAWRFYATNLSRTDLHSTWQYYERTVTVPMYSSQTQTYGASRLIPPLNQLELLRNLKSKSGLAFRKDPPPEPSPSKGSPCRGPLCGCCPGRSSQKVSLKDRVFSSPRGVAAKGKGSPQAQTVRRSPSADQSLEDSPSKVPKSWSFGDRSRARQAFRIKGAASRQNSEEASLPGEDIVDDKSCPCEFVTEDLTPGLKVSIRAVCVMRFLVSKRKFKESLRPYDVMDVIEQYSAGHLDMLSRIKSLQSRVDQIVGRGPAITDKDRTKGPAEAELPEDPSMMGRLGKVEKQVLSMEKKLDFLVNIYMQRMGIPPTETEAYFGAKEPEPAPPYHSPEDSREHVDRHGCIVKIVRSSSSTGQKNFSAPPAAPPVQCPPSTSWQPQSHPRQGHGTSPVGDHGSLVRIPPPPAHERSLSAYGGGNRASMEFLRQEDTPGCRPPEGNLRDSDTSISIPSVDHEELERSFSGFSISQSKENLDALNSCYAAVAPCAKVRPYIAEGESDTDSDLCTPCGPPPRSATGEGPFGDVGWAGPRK
Readout Type: pEC50
The quantity pEC50 is defined as the negative base-10 logarithm of the molar concentration.

* Cc1cc2c(c(C)c1NC(=O)CC1(C)CC1)CCN(c1ccc(F)cc1)C2 | 6.36
* Cc1cc2c(c(C)c1NC(=O)CC(C)(C)C)CCN(c1ccc(F)cc1)C2 | 6.36
* C#Cc1ccc(N2CCc3c(cc(C)c(NC(=O)CC(C)(C)C)c3C)C2)cc1 | 6.35
* Cc1cc2c(c(C)c1NC(=O)CC1(C)CC1)CCN(c1ccccc1F)C2 | 6.14
* Cc1cc2c(c(C)c1NC(=O)CC1(C)CC1)CCN(c1ccc(Br)cc1)C2 | 6.70

Ask: Read off the recorded pEC50 for "Cc1cc2c(c(C)c1NC(=O)CC1(C)CC1)CCN(c1ccccc1)C2"
Result: 6.47

Ask: Read off the recorded pEC50 for "Cc1cc2c(c(C)c1NC(=O)CC1(C(F)(F)F)CC1)CCN(c1ccc(F)cc1)C2"
Result: 6.54

Ask: Read off the recorded pEC50 for "Cc1cc2c(c(C)c1NC(=O)CC1CC(F)(F)C1)CCN(c1ccc(F)cc1)C2"
Result: 7.31

###

Assay: Pharmacokinetics of mice, single intravenous and oral administration, plasma
Assay type: in vivo
Details: mouse; male ICR mice, intravenous 0.5 mg/kg, plasma
Description: Study on Pharmacokinetics of Mice 1) Research purposes: In order to obtain the pharmacokinetic characteristics and blood-brain barrier of the tested compound in male ICR mice Six healthy male ICR mice (body weight range 18-22 g) were taken and divided into 2 groups and 3 mice/group. […]
Readout Type: Tmax (min)
Reply with just the number (in min).

• Cc1cc2c(c(C)c1NC(=O)CC1(C)CC1)CCN(c1ccc(F)cc1)C2 [Compound I] = 4.8
• Cc1cc2c(c(C)c1NC(=O)CC1(C)CC1)CCN(c1ccc(C(F)(F)F)cc1)C2 [Compound P] = 4.8

From here, focus on the item given below.
Ask: Read off the recorded Tmax for Cc1cc2c(c(C)c1NC(=O)CC(C)(C)C)CCN(c1ccc(F)cc1)C2 [Compound A]
Result: 4.8

###

Attribute: Kp at 2 h
experiment: Brain-blood ratio study in mice after single oral administration; format: in vivo; conditions: mouse, brain and plasma; male ICR mice, single oral 10 mg/kg, time point 2 h; read-out: Cerebral blood ratio
// return a plain number; no unit text

Sample answers from the record:
* Cc1cc2c(c(C)c1NC(=O)CC(C)(C)C)CCN(c1ccc(F)cc1)C2 [Compound A] | 2.3
* Cc1cc2c(c(C)c1NC(=O)CC1(C)CC1)CCN(c1ccc(F)cc1)C2 [Compound I] | 6
* Cc1cc2c(c(C)c1NC(=O)CC(C)(C)C)CCN(c1ccc(F)cc1F)C2 [Compound B] | 0.99
* Cc1cc2c(c(C)c1NC(=O)CC1(C)CC1)CCN(c1ccc(F)cc1F)C2 [Compound J] | 4.1

From here, focus on the item given below.
Ask: Read off the recorded Kp at 2 h for Cc1cc2c(c(C)c1NC(=O)CC1(C)CC1)CCN(c1ccc(C(F)(F)F)cc1)C2 [Compound P]
Result: 6.4

Where do these numbers come from? They come from patent US20230077155A1.
